- System: Mycobacterium tuberculosis
- assay_protocol: Antimycobacterial activity against Mycobacterium tuberculosis H37Rv assessed as inhibition of bacterial growth by microdilution alamar blue broth assay
- Format: functional, organism-based
Measured IC90 by item

I would be grateful if you could share the reported IC90 for O=C1c2ccccc2C(=O)C12N1CSC[C@@H]1[C@@H](c1ccc(Br)cc1)[C@@]21CSc2ccccc2C1=O .
47.9 µM

Likewise for CN1C[C@@H](c2cccc(Br)c2)[C@@]2(CSc3ccccc3C2=O)C12C(=O)c1ccccc1C2=O ?
16.1 µM

Likewise for CN1C[C@@H](c2cccc(F)c2)[C@@]2(CSc3ccccc3C2=O)C12C(=O)c1ccccc1C2=O ?
9.86 µM

Likewise for O=C1c2ccccc2C(=O)C12N1CSC[C@@H]1[C@@H](c1ccc(F)cc1)[C@@]21CSc2ccccc2C1=O ?
25.9 µM

Likewise for O=C1c2ccccc2C(=O)C12N1CSC[C@@H]1[C@@H](c1cccs1)[C@@]21CSc2ccccc2C1=O ?
24.6 µM

Likewise for CN1CC(c2ccccc2Cl)[C@@]2(CSc3ccccc3C2=O)C12C(=O)c1ccccc1C2=O (single isomer, unassigned) ?
66.5 µM

Likewise for CC(C)c1ccc([C@@H]2[C@H]3CSCN3C3(C(=O)c4ccccc4C3=O)[C@]23CSc2ccccc2C3=O)cc1 ?
76.4 µM

Likewise for O=C1c2ccccc2C(=O)C12N1CSC[C@@H]1[C@@H](c1cccc(Br)c1)[C@@]21CSc2ccccc2C1=O ?
35.5 µM

Likewise for CN1CC(c2ccccc2Br)[C@@]2(CSc3ccccc3C2=O)C12C(=O)c1ccccc1C2=O (single isomer, unassigned) ?
36.5 µM

Likewise for O=C1c2ccccc2C(=O)C12N1CSC[C@@H]1[C@@H](c1cccc(F)c1)[C@@]21CSc2ccccc2C1=O ?
22 µM

----------
- measurement_target: Acetylcholinesterase (Homo sapiens)
- Sequence (P22303 whole entry): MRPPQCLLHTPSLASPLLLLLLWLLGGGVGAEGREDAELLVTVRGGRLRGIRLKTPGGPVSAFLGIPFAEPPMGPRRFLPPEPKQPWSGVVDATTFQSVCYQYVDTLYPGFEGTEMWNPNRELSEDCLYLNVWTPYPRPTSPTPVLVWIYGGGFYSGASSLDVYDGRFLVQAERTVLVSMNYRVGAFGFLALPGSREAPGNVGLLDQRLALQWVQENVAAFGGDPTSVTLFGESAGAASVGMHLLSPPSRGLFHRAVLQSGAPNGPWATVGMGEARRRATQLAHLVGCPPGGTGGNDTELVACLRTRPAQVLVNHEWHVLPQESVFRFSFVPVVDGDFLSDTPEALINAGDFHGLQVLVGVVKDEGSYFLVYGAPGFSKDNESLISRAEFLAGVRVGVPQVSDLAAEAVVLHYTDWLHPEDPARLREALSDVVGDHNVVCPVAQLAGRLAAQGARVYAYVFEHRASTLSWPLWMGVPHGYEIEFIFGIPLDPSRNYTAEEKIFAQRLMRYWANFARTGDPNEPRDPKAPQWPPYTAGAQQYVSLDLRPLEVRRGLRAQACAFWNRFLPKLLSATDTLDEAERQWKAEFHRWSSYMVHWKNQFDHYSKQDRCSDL
pIC50: −log10 of the molar value.
Is pIC50 at least 5? Then criterion met. If not, criterion not met.

{"molecule": "O=C1c2ccccc2C(=O)C12N1CSC[C@@H]1C(c1ccccc1Cl)[C@@]21CSc2ccccc2C1=O (single isomer, unassigned)", "class_assignment": "criterion not met"}
{"molecule": "CC(C)c1ccc([C@@H]2[C@H]3CSCN3C3(C(=O)c4ccccc4C3=O)[C@]23CSc2ccccc2C3=O)cc1", "class_assignment": "criterion not met"}
{"molecule": "O=C1c2ccccc2C(=O)C12N1CSC[C@@H]1[C@@H](c1cccs1)[C@@]21CSc2ccccc2C1=O", "class_assignment": "criterion not met"}

Check this molecule for pIC50 at or above 5: COc1ccc([C@@H]2CN(C)C3(C(=O)c4ccccc4C3=O)[C@]23CSc2ccccc2C3=O)cc1
criterion met

Likewise for CN1C[C@@H](c2cccc3ccccc23)[C@@]2(CSc3ccccc3C2=O)C12C(=O)c1ccccc1C2=O ?
criterion met

Likewise for O=C1c2ccccc2C(=O)C12N1CSC[C@@H]1[C@@H](c1ccc(Cl)cc1)[C@@]21CSc2ccccc2C1=O ?
criterion not met

----------
Measured IC90 by item
- Test system: Mycobacterium tuberculosis
- assay_protocol: Antimycobacterial activity against Mycobacterium tuberculosis H37Rv assessed as inhibition of bacterial growth by microdilution alamar blue broth assay
- Type: functional, organism-based
Numbers only; they are read as µM.

Please review the entries below; each comes with its answer.
{"compound": "CC(C)c1ccc([C@@H]2CN(C)C3(C(=O)c4ccccc4C3=O)[C@]23CSc2ccccc2C3=O)cc1", "measurement_target": "Mycobacterium tuberculosis", "readout_value": 44.6}
{"compound": "CN1C[C@@H](c2ccc(Cl)cc2)[C@@]2(CSc3ccccc3C2=O)C12C(=O)c1ccccc1C2=O", "measurement_target": "Mycobacterium tuberculosis", "readout_value": 12.4}
{"compound": "O=C1c2ccccc2C(=O)C12N1CSC[C@@H]1C(c1ccccc1Cl)[C@@]21CSc2ccccc2C1=O (single isomer, unassigned)", "measurement_target": "Mycobacterium tuberculosis", "readout_value": 14.7}

Turning now to a further record.
I would be grateful if you could share the reported IC90 for NNC(=O)c1ccncc1 .
0.29
